PROCEDURE TEXT: Nerve conduction studies (peripheral nerve latency) in the Phase II trial
Format: in vivo, human
CONDITION SET: Pair 1, paired difference; unit assumed
ASSAY METRIC: calf latency (baseline)-calf latency (week 20), Mean within-group change (ms)
Answers are plain numbers, in ms.

Query string: # calf latency (baseline)-calf latency (week 20), Mean within-group change lookup, item Oc1c(I)cc(Cl)c2cccnc12 [CQ, iodochlorhydroxyquin]
Result string: 0.575

----------
PROCEDURE TEXT: Safety measures / adverse event reporting in the Phase II trial
Format: in vivo, human
CONDITION SET: CQ arm, week 36, p=0.03
ASSAY METRIC: reduction in haemoglobin (g/L)
Numbers only, in g/L.

Query string: Form field: reported reduction in haemoglobin of Oc1c(I)cc(Cl)c2cccnc12 [CQ, iodochlorhydroxyquin]
Result string: 5.5
